- Tested on: NCI-H524 (ATCC) human lung cancer cells
- Assay type: cell-based
- cond: Table 15; treated 2 hours, further incubated 70 hours; read-out: H524 IC50
Flag rule - IC50 less than 700 nM flags 1.0; the remaining entries get 0.0.

Use the examples below as a reference point.
{"compound": "COc1cc2cc(c1Cl)N(C)C(=O)C[C@H](OC(=O)[C@H](C)N(C)C(=O)CCSSCCC(=O)NCCNC(=O)[C@@H](NC(=O)[C@@H]1CSSC[C@H](NC(=O)[C@H](N)Cc3ccccc3)C(=O)N[C@@H](Cc3ccc(O)cc3)C(=O)N[C@H](Cc3c[nH]c4ccccc34)C(=O)N[C@@H](CCCCN)C(=O)N[C@@H]([C@@H](C)O)C(=O)N1)[C@@H](C)O)[C@]1(C)O[C@H]1[C@H](C)[C@@H]1C[C@@](O)(NC(=O)O1)[C@H](OC)/C=C/C=C(\\C)C2 [Conjugate 43]", "assayTarget": "NCI-H524 (ATCC) human lung cancer cells", "labelClass": 0.0}
{"compound": "CCCCCCCCCCC(CCN[C@H](Cc1ccccc1)C(=O)N[C@H]1CSSC[C@@H](C(=O)N[C@@H](Cc2c[nH]c3ccccc23)C(N)=O)NC(=O)[C@H]([C@@H](C)O)NC(=O)[C@H](CCCCN)NC(=O)[C@@H](Cc2c[nH]c3ccccc23)NC(=O)[C@H](Cc2ccc(O)cc2)NC1=O)SSCCC(=O)N(C)[C@@H](C)C(=O)O[C@H]1CC(=O)N(C)c2cc(cc(OC)c2Cl)C/C(C)=C/C=C/[C@@H](OC)[C@@]2(O)C[C@H](OC(=O)N2)[C@@H](C)[C@@H]2O[C@@]12C (stereo partly drawn) [Conjugate 102]", "assayTarget": "NCI-H524 (ATCC) human lung cancer cells", "labelClass": 1.0}
{"compound": "COc1cc2cc(c1Cl)N(C)C(=O)C[C@H](OC(=O)[C@H](C)N(C)C(=O)CCSSCCC(=O)NCCCOCCOCCOCCCNC(=O)CC[C@H]1C(=O)N[C@@H](Cc3ccc(O)cc3)C(=O)N[C@H](Cc3c[nH]c4ccccc34)C(=O)N[C@@H](CCCCN)C(=O)N[C@@H]([C@@H](C)O)C(=O)N[C@@H](Cc3ccccc3)C(=O)N1C)[C@]1(C)O[C@H]1[C@H](C)[C@@H]1C[C@@](O)(NC(=O)O1)[C@H](OC)/C=C/C=C(\\C)C2 [Conjugate 18]", "assayTarget": "NCI-H524 (ATCC) human lung cancer cells", "labelClass": 0.0}
{"compound": "COc1cc2cc(c1Cl)N(C)C(=O)C[C@H](OC(=O)[C@H](C)N(C)C(=O)CCSSC(C)CCN[C@H](Cc1ccccc1)C(=O)N[C@H]1CSSC[C@@H](C(=O)N[C@H](CO)[C@@H](C)O)NC(=O)[C@H]([C@@H](C)O)NC(=O)[C@H](CCCCN)NC(=O)[C@@H](Cc3c[nH]c4ccccc34)NC(=O)[C@H](Cc3ccccc3)NC1=O)[C@]1(C)O[C@H]1[C@H](C)[C@@H]1C[C@@](O)(NC(=O)O1)[C@H](OC)/C=C/C=C(\\C)C2 (stereo partly drawn) [Conjugate 82]", "assayTarget": "NCI-H524 (ATCC) human lung cancer cells", "labelClass": 1.0}
{"compound": "COc1cc2cc(c1Cl)N(C)C(=O)C[C@H](OC(=O)[C@H](C)N(C)C(=O)CCSSC1CCN(C(=O)CC[C@H]3C(=O)N[C@@H](Cc4ccc(O)cc4)C(=O)N[C@H](Cc4c[nH]c5ccccc45)C(=O)N[C@@H](CCCCN)C(=O)N[C@@H]([C@@H](C)O)C(=O)N[C@@H](Cc4ccccc4)C(=O)N3C)CC1)[C@]1(C)O[C@H]1[C@H](C)[C@@H]1C[C@@](O)(NC(=O)O1)[C@H](OC)/C=C/C=C(\\C)C2 [Conjugate 28]", "assayTarget": "NCI-H524 (ATCC) human lung cancer cells", "labelClass": 1.0}

Prompt: Just wondering, is IC50 of COc1cc2cc(c1Cl)N(C)C(=O)C[C@H](OC(=O)[C@H](C)N(C)C(=O)CCSSCCCN1CCN(CC(=O)N[C@H](Cc3ccccc3)C(=O)N[C@H]3CSSC[C@@H](C(=O)N[C@H](CO)[C@@H](C)O)NC(=O)[C@H]([C@@H](C)O)NC(=O)[C@H](CCCCN)NC(=O)[C@@H](Cc4c[nH]c5ccccc45)NC(=O)[C@H](Cc4ccccc4)NC3=O)CC1)[C@]1(C)O[C@H]1[C@H](C)[C@@H]1C[C@@](O)(NC(=O)O1)[C@H](OC)/C=C/C=C(\C)C2 [Conjugate 86] below 700 nM?
Completion: 1.0

Prompt: Hello, is IC50 of the following compound strictly smaller than 700 nM? COc1cc2cc(c1Cl)N(C)C(=O)C[C@H](OC(=O)[C@H](C)N(C)C(=O)CCSSC[C@H](NC(=O)[C@@H]1CSSC[C@H](NC(=O)[C@H](N)Cc3ccccc3)C(=O)N[C@@H](Cc3ccc(O)cc3)C(=O)N[C@H](Cc3c[nH]c4ccccc34)C(=O)N[C@@H](CCCCN)C(=O)N[C@@H]([C@@H](C)O)C(=O)N1)C(=O)NC1CCCCC1)[C@]1(C)O[C@H]1[C@H](C)[C@@H]1C[C@@](O)(NC(=O)O1)[C@H](OC)/C=C/C=C(\C)C2 [Conjugate 63]
Completion: 1.0

Prompt: I'd appreciate it if you could check whether COc1cc2cc(c1Cl)N(C)C(=O)C[C@H](OC(=O)[C@H](C)N(C)C(=O)CCSSCCC(=O)NCCCC[C@@H](N)C(=O)N[C@H]1CSSC[C@@H](C(=O)N[C@H](C(=O)O)[C@@H](C)O)NC(=O)[C@H]([C@@H](C)O)NC(=O)[C@H](CCCCN)NC(=O)[C@@H](Cc3c[nH]c4ccccc34)NC(=O)[C@H](Cc3ccc(O)cc3)NC1=O)[C@]1(C)O[C@H]1[C@H](C)[C@@H]1C[C@@](O)(NC(=O)O1)[C@H](OC)/C=C/C=C(\C)C2 [Conjugate 113] has IC50 smaller than 700 nM.
Completion: 0.0

Prompt: Quick check: does CCCCCCCCCCC(CCN[C@H](Cc1ccccc1)C(=O)N[C@H]1CSSC[C@@H](C(=O)N[C@@H](CO)[C@@H](C)O)NC(=O)[C@H]([C@@H](C)O)NC(=O)[C@H](CCCCN)NC(=O)[C@@H](Cc2c[nH]c3ccccc23)NC(=O)[C@H](Cc2ccccc2)NC1=O)SSCCC(=O)N(C)[C@@H](C)C(=O)O[C@H]1CC(=O)N(C)c2cc(cc(OC)c2Cl)C/C(C)=C/C=C/[C@@H](OC)[C@@]2(O)C[C@H](OC(=O)N2)[C@@H](C)[C@@H]2O[C@@]12C (stereo partly drawn) [Conjugate 106] have IC50 under 700 nM?
Completion: 1.0

###

- Tested on: NCI-H524 (ATCC) human lung cancer cells
- Type: cell-based
- cond: Table 15; treated 2 hours, further incubated 70 hours; read-out: H524 IC50
assayReadout: IC50 (nM)
Unit nM implied. Number only.

{"compound": "COc1cc2cc(c1Cl)N(C)C(=O)C[C@H](OC(=O)[C@H](C)N(C)C(=O)CCSC1CC(=O)N(CC(=O)N[C@H](Cc3ccccc3)C(=O)N[C@H]3CSSC[C@@H](C(=O)N[C@H](CO)[C@@H](C)O)NC(=O)[C@H]([C@@H](C)O)NC(=O)[C@H](CCCCN)NC(=O)[C@@H](Cc4c[nH]c5ccccc45)NC(=O)[C@H](Cc4ccccc4)NC3=O)C1=O)[C@]1(C)O[C@H]1[C@H](C)[C@@H]1C[C@@](O)(NC(=O)O1)[C@H](OC)/C=C/C=C(\\C)C2 (some centres unmarked) [Conjugate 108]", "uom": "nM", "IC50": 96}

Prompt: Consider the compound COc1cc2cc(c1Cl)N(C)C(=O)C[C@H](OC(=O)[C@H](C)N(C)C(=O)CCSSCCNC(=O)[C@H](Cc1c[nH]c3ccccc13)NC(=O)[C@@H]1CSSC[C@H](NC(=O)[C@H](N)Cc3ccccc3)C(=O)N[C@@H](Cc3ccc(O)cc3)CN[C@H](Cc3c[nH]c4ccccc34)C(=O)N[C@@H](CCCCN)C(=O)N[C@@H]([C@@H](C)O)C(=O)N1)[C@]1(C)O[C@H]1[C@H](C)[C@@H]1C[C@@](O)(NC(=O)O1)[C@H](OC)/C=C/C=C(\C)C2 [Conjugate 49] . State its measured IC50.
Completion: 69

###

- Test system: NCI-H524 (ATCC) human lung cancer cells
- Format: cell-based
- cond: Table 15; treated 2 hours, further incubated 70 hours; read-out: H524 IC50
- Method: Conjugates were assessed in an in vitro assay evaluating inhibition of cell proliferation. […] Proliferation was measured using CellTiter Glo reagent using the standard protocol (Promega) and a Glomax multi+detection system (Promega). Percent proliferation inhibition was calculated using the following formula: % inhibition=(control-treatment)/control*100. […] Conjugates of the present invention were assessed in an in vitro assay evaluating inhibition of cell proliferation. […]
Bridge positions count the residues as written; N and C are the ends. Square brackets hold non-standard residues; d marks the D form. Peptide text beside a SMILES is read from it. * marks the point of attachment. X1 = COc1cc2cc(c1Cl)N(C)C(=O)C[C@H](OC(=O)[C@H](C)N(C)C(=O)CCS*)[C@]1(C)O[C@H]1[C@H](C)[C@@H]1C[C@@](O)(NC(=O)O1)[C@H](OC)/C=C/C=C(\C)C2; Mpa = O=C(O)CCS
Reported IC50 values for a set of compounds
Write the value in nM as a bare number.

Solved entries (count: 4):
{"compound": "COc1cc2cc(c1Cl)N(C)C(=O)C[C@H](OC(=O)[C@H](C)N(C)C(=O)CCSSC[C@H](NC(=O)[C@@H]1CSSC[C@H](NC(=O)[C@H](N)Cc3ccccc3)C(=O)N[C@@H](Cc3ccc(O)cc3)C(=O)N[C@H](Cc3c[nH]c4ccccc34)C(=O)N[C@@H](CCCCN)C(=O)N[C@@H]([C@@H](C)O)C(=O)N1)C(=O)O)[C@]1(C)O[C@H]1[C@H](C)[C@@H]1C[C@@](O)(NC(=O)O1)[C@H](OC)/C=C/C=C(\\C)C2 [Conjugate 61]", "IC50 / nM": 89}
{"compound": "CCCCN(CCSSCCC(=O)N(C)[C@@H](C)C(=O)O[C@H]1CC(=O)N(C)c2cc(cc(OC)c2Cl)C/C(C)=C/C=C/[C@@H](OC)[C@@]2(O)C[C@H](OC(=O)N2)[C@@H](C)[C@@H]2O[C@@]12C)C(=O)CC[C@H]1C(=O)N[C@@H](Cc2ccc(O)cc2)C(=O)N[C@H](Cc2c[nH]c3ccccc23)C(=O)N[C@@H](CCCCN)C(=O)N[C@@H]([C@@H](C)O)C(=O)N[C@@H](Cc2ccccc2)C(=O)N1C [Conjugate 22]", "IC50 / nM": 332}
{"compound": "COc1cc2cc(c1Cl)N(C)C(=O)C[C@H](OC(=O)[C@H](C)N(C)C(=O)CCSSCCC(=O)N[C@H](Cc1ccccc1)C(=O)N[C@H]1CSSC[C@@H](C(=O)N[C@@H](Cc3c[nH]c4ccccc34)C(N)=O)NC(=O)[C@H](C(C)C)NC(=O)[C@H](CCCCN)NC(=O)[C@@H](Cc3c[nH]c4ccccc34)NC(=O)[C@H](Cc3ccc(O)cc3)NC1=O)[C@]1(C)O[C@H]1[C@H](C)[C@@H]1C[C@@](O)(NC(=O)O1)[C@H](OC)/C=C/C=C(\\C)C2 [Conjugate 70] ([Mpa](X1)[dF]CY[dW]KVCW-NH2; disulfide 3-8)", "IC50 / nM": 317}
{"compound": "COc1cc2cc(c1Cl)N(C)C(=O)C[C@H](OC(=O)[C@H](C)N(C)C(=O)CCSC1CC(=O)N(CC3CCC(C(=O)N[C@H](Cc4ccccc4)C(=O)N[C@H]4CSSC[C@@H](C(=O)N[C@H](CO)[C@@H](C)O)NC(=O)[C@H]([C@@H](C)O)NC(=O)[C@H](CCCCN)NC(=O)[C@@H](Cc5c[nH]c6ccccc56)NC(=O)[C@H](Cc5ccccc5)NC4=O)CC3)C1=O)[C@]1(C)O[C@H]1[C@H](C)[C@@H]1C[C@@](O)(NC(=O)O1)[C@H](OC)/C=C/C=C(\\C)C2 (some centres unmarked) [Conjugate 104]", "IC50 / nM": 279}

Prompt: Look up and state reported IC50 for COc1cc2cc(c1Cl)N(C)C(=O)C[C@H](OC(=O)[C@H](C)N(C)C(=O)CCSSCCOc1ccc(C[C@@H](N)C(=O)N[C@H]3CSSC[C@@H](C(=O)N[C@H](C(=O)O)[C@@H](C)O)NC(=O)[C@H]([C@@H](C)O)NC(=O)[C@H](CCCCN)NC(=O)[C@@H](Cc4c[nH]c5ccccc45)NC(=O)[C@H](Cc4ccc(O)cc4)NC3=O)cc1)[C@]1(C)O[C@H]1[C@H](C)[C@@H]1C[C@@](O)(NC(=O)O1)[C@H](OC)/C=C/C=C(\C)C2 [Conjugate 111]
Completion: 123

Values were extracted from patent US10322191B2.
